Reported half-life is given for each of the following molecules.
# test-description: Liver microsomal stability, human
# Assay type: in vitro ADME
# run-parameters: pH 7.4; human liver microsomes, 0.5 mg/mL protein, 1 μM compound, NADPH; >80% remaining at 45 min denoted >140; read-out: Liver Microsomal Stability: t1/2 (min); human
# Description: Compounds were subjected to the following assays to investigate liver microsomal stability, permeability and plasma protein binding. Pooled liver microsomes were purchased from a reputable commercial supplier and stored at −80° C. prior to use. […] Following protein precipitation, the sample supernatants were combined in cassettes of up to 4 compounds, internal standard added, and samples analysed by LC-MS/MS. […] Subsequently, half-life (t1/2) and intrinsic clearance (CLint) were calculated.
endpoint-label: half-life (min)

>  <molecule>
CCn1ncc(C(=O)N[C@H]2N=C(c3ccccc3)c3ccccc3NC2=O)c1-c1ncc(NC)cc1F [Example 38]

>  <endpoint-label>
half-life

>  <unit-abbreviation>
min

>  <value-reported>
35.2

$$$$
>  <molecule>
CCn1ncc(C(=O)N[C@H]2N=C(c3ccccc3)c3cccc(F)c3NC2=O)c1-c1ccc(NC2CC2)nc1F [Example 11]

>  <endpoint-label>
half-life

>  <unit-abbreviation>
min

>  <value-reported>
82.4

$$$$
>  <molecule>
O=C(N[C@H]1N=C(c2ccccc2)c2cccc(F)c2NC1=O)c1cnn(C2CCOCC2)c1-c1ccc(C2CC2)nc1F [Example 49]

>  <endpoint-label>
half-life

>  <unit-abbreviation>
min

>  <value-reported>
181

$$$$
>  <molecule>
O=C(N[C@H]1N=C(c2ccccc2)c2ccccc2NC1=O)c1cnn(C2CCOCC2)c1-c1ccc(C2CC2)cc1F [Example 43]

>  <endpoint-label>
half-life

>  <unit-abbreviation>
min

>  <value-reported>
170

$$$$

====

# test-description: Dog pharmacokinetics in vivo
# run-parameters: plasma, male Beagle dogs, PO 4 mg/kg, read-out: PO t1/2 (converted)
// reported half-life per item

>  <smiles-record>
CCNc1ccc(-c2c(C(=O)N[C@H]3N=C(c4ccccc4)c4cccc(F)c4NC3=O)cnn2C2CCOCC2)c(F)n1

>  <half-life [min]>
144

$$$$
>  <smiles-record>
CC(C)Nc1ccc(-c2c(C(=O)N[C@H]3N=C(c4ccccc4)c4cccc(F)c4NC3=O)cnn2C2CCOCC2)c(F)n1

>  <half-life [min]>
408

$$$$
>  <smiles-record>
CCn1ncc(C(=O)N[C@H]2N=C(c3ccccc3)c3ccccc3NC2=O)c1-c1ccc(NC2CC2)nc1F

>  <half-life [min]>
138

$$$$

====

# test-description: Dog pharmacokinetics in vivo
# run-parameters: plasma, male Beagle dogs, Dose: IV/PO 0.5/3 mg/kg

>  <molecule>
O=C(N[C@H]1N=C(c2ccccc2)c2cccc(F)c2NC1=O)c1cnn(C2CCOCC2)c1-c1ccc(NC2CC2)nc1F [Example 21]

>  <Cmax [ng/mL]>
500

$$$$

====

# test-description: Liver microsomal stability, rat
# Format: in vitro ADME
# run-parameters: pH 7.4; rat liver microsomes, 0.5 mg/mL protein, 1 μM compound, NADPH; >80% remaining at 45 min denoted >140; read-out: Liver Microsomal Stability: t1/2 (min); rat

>  <smiles-record>
CCn1ncc(C(=O)N[C@H]2N=C(c3ccccc3)c3ccccc3NC2=O)c1-c1ccc(NC2(C)CC2)nc1F

>  <comparator>
=

>  <half-life / min>
31.5

$$$$
>  <smiles-record>
CC(C)Nc1ccc(-c2c(C(=O)N[C@H]3N=C(c4ccccc4)c4cccc(F)c4NC3=O)cnn2C2CCOCC2)c(F)n1

>  <comparator>
>

>  <half-life / min>
140

$$$$
>  <smiles-record>
O=C(N[C@H]1N=C(c2ccccc2)c2cccc(F)c2NC1=O)c1cnn(C2COC2)c1-c1ccc(NC2CC2)nc1F

>  <comparator>
>

>  <half-life / min>
140

$$$$
>  <smiles-record>
CCNc1cnc(-c2c(C(=O)N[C@H]3N=C(c4ccccc4)c4ccccc4NC3=O)cnn2CC)c(F)c1

>  <comparator>
=

>  <half-life / min>
21.4

$$$$
>  <smiles-record>
O=C(N[C@H]1N=C(c2ccccc2)c2ccccc2NC1=O)c1cnn(C2CCOCC2)c1-c1cc(C2CC2)cnc1F

>  <comparator>
=

>  <half-life / min>
44.2

$$$$
>  <smiles-record>
CCn1ncc(C(=O)N[C@H]2N=C(c3ccccc3)c3cccc(F)c3NC2=O)c1-c1ncc(NC2CC2)cc1F

>  <comparator>
=

>  <half-life / min>
51.1

$$$$
>  <smiles-record>
CCn1ncc(C(=O)N[C@H]2N=C(c3ccccc3)c3cccc(F)c3NC2=O)c1-c1cc(C2CC2)cnc1F

>  <comparator>
=

>  <half-life / min>
118

$$$$
>  <smiles-record>
O=C(N[C@H]1N=C(c2ccccc2)c2ccccc2NC1=O)c1cnn(C2COC2)c1-c1ccc(NC2CC2)nc1F

>  <comparator>
=

>  <half-life / min>
93.5

$$$$
>  <smiles-record>
CCn1ncc(C(=O)N[C@H]2N=C(c3ccccc3)c3ccccc3NC2=O)c1-c1ncc(NC)cc1F

>  <comparator>
=

>  <half-life / min>
42

$$$$
>  <smiles-record>
O=C(N[C@H]1N=C(c2ccccc2)c2cccc(F)c2NC1=O)c1cnn(C2CCOCC2)c1-c1ccc(C2CC2)cc1F

>  <comparator>
=

>  <half-life / min>
55.9

$$$$
>  <smiles-record>
CCNc1ccc(-c2c(C(=O)N[C@H]3N=C(c4ccccc4)c4cccc(F)c4NC3=O)cnn2C2CCOCC2)c(F)n1

>  <comparator>
=

>  <half-life / min>
484

$$$$
>  <smiles-record>
CCn1ncc(C(=O)N[C@H]2N=C(c3ccccc3)c3ccccc3NC2=O)c1-c1ccc(NC)nc1F

>  <comparator>
=

>  <half-life / min>
24.4

$$$$
>  <smiles-record>
CCCNc1ccc(-c2nn(CC)cc2C(=O)N[C@H]2N=C(c3ccccc3)c3cccc(F)c3NC2=O)c(F)n1

>  <comparator>
=

>  <half-life / min>
22.7

$$$$
>  <smiles-record>
O=C(N[C@H]1N=C(c2ccccc2)c2ccccc2NC1=O)c1cnn(C2CC2)c1-c1ccc(NC2CC2)nc1F

>  <comparator>
=

>  <half-life / min>
69.8

$$$$
>  <smiles-record>
O=C(N[C@H]1N=C(c2ccccc2)c2ccccc2NC1=O)c1cnn(C2CCOCC2)c1-c1ccc(C2CC2)cc1F

>  <comparator>
=

>  <half-life / min>
44.9

$$$$
>  <smiles-record>
CCNc1ccc(-c2c(C(=O)N[C@H]3N=C(c4ccccc4)c4ccccc4NC3=O)cnn2CC)c(F)n1

>  <comparator>
=

>  <half-life / min>
30.3

$$$$
>  <smiles-record>
CCNc1ccc(-c2c(C(=O)N[C@H]3N=C(c4ccccc4)c4ccccc4NC3=O)cnn2C2CCOCC2)c(F)n1

>  <comparator>
=

>  <half-life / min>
85.8

$$$$
>  <smiles-record>
CCNc1cnc(-c2c(C(=O)N[C@H]3N=C(c4ccccc4)c4cccc(F)c4NC3=O)cnn2CC)c(F)c1

>  <comparator>
=

>  <half-life / min>
9.6

$$$$
>  <smiles-record>
CCn1ncc(C(=O)N[C@H]2N=C(c3ccccc3)c3ccccc3NC2=O)c1-c1ncc(NC(C)C)cc1F

>  <comparator>
>

>  <half-life / min>
140

$$$$
>  <smiles-record>
CC(C)(C)n1cc(C(=O)N[C@H]2N=C(c3ccccc3)c3cccc(F)c3NC2=O)c(-c2ccc(NC3CC3)nc2F)n1

>  <comparator>
=

>  <half-life / min>
53.1

$$$$
>  <smiles-record>
O=C(N[C@H]1N=C(c2ccccc2)c2ccccc2NC1=O)c1cn(C2CCOCC2)nc1-c1ccc(NC2CC2)nc1F

>  <comparator>
=

>  <half-life / min>
36.3

$$$$
>  <smiles-record>
CCOc1nn(CC)c(-c2ccccc2F)c1C(=O)N[C@H]1N=C(c2ccccc2)c2cccc(F)c2NC1=O

>  <comparator>
=

>  <half-life / min>
26.5

$$$$
>  <smiles-record>
CCn1ncc(C(=O)N[C@H]2N=C(c3ccccc3)c3ccccc3NC2=O)c1-c1ccc(NC(C)C)cc1F

>  <comparator>
=

>  <half-life / min>
141

$$$$
>  <smiles-record>
CC(C)n1ncc(C(=O)N[C@H]2N=C(c3ccccc3)c3ccccc3NC2=O)c1-c1ccc(NC2CC2)nc1F

>  <comparator>
=

>  <half-life / min>
72.7

$$$$
>  <smiles-record>
CCCNc1ccc(-c2nn(CC)cc2C(=O)N[C@H]2N=C(c3ccccc3)c3ccccc3NC2=O)c(F)n1

>  <comparator>
=

>  <half-life / min>
23.9

$$$$
>  <smiles-record>
CCn1ncc(C(=O)N[C@H]2N=C(c3ccccc3)c3ccccc3NC2=O)c1-c1ccc(NC2CCC2)nc1F

>  <comparator>
=

>  <half-life / min>
47.4

$$$$
>  <smiles-record>
O=C(N[C@H]1N=C(c2ccccc2)c2cccc(F)c2NC1=O)c1cn(CC(F)(F)F)nc1-c1ccc(NC2CC2)nc1F

>  <comparator>
=

>  <half-life / min>
56

$$$$
>  <smiles-record>
CCNc1ccc(-c2c(C(=O)N[C@H]3N=C(c4ccccc4)c4cccc(F)c4NC3=O)cnn2C2COC2)c(F)n1

>  <comparator>
=

>  <half-life / min>
81.1

$$$$
